// provenance: patent US8592161B2

- Test system: HIV-1/LAI strain selected with NFV (9000 nM, 11l days), protease L10F D30N R41R/K K45I/K M46I V77I I84V/I I85V/I N88D
- assay.method.text: In vitro antiviral activity in acutely infected MT4 cells, selected strain
- Format: cell-based
- condition.description: Human immunodeficiency virus 1, Table 5, strain L10F D30N R41R/K K45I/K M46I V77I I84V/I I85V/I N88D (NFV 9000 nM, 11l days), read-out: median EC50
readout.label: EC50 (nM)

# smi, readout.label, reading
records = [
    ("Cc1c(O)cccc1C(=O)N[C@@H](CSc1ccccc1)[C@H](O)CN1C[C@H]2CCCC[C@H]2C[C@H]1C(=O)NC(C)(C)C", "EC50", 7200),
    ("Cc1cccc(C)c1OCC(=O)N[C@@H](Cc1ccccc1)[C@@H](O)C[C@H](Cc1ccccc1)NC(=O)[C@H](C(C)C)N1CCCNC1=O", "EC50", 39),
    ("CC(C)(C)NC(=O)[C@@H]1C[C@@H]2CCCC[C@@H]2CN1C[C@@H](O)[C@H](Cc1ccccc1)NC(=O)[C@H](CC(N)=O)NC(=O)c1ccc2ccccc2n1", "EC50", 15),
    ("CC(C)CN(C[C@@H](O)[C@H](Cc1ccccc1)NC(=O)O[C@H]1CCOC1)S(=O)(=O)c1ccc(N)cc1", "EC50", 95),
    ("CC(C)(C)NC(=O)[C@@H]1CN(Cc2cccnc2)CCN1C[C@@H](O)C[C@@H](Cc1ccccc1)C(=O)N[C@H]1c2ccccc2C[C@H]1O", "EC50", 100),
    ("CC(C)c1nc(CN(C)C(=O)N[C@H](C(=O)N[C@@H](Cc2ccccc2)C[C@H](O)[C@H](Cc2ccccc2)NC(=O)OCc2cncs2)C(C)C)cs1", "EC50", 86),
]
